Hey, just so you know, these numbers are from PubChem BioAssay (NCI).

List of TGI values.
- System: SF-539 CNS
- PROTOCOL DETAILS: NCI tumour cell line growth inhibition, 48 h
ENDPOINT NAME: TGI (µM)

> print(dat)
                                    compound  measured.on  qualifier  result.value
 1  Cc1ccc2nc(/C(=C/c3ccc(/C=C(\NC(=O)c4ccccc4)c4nc5ccc(C)cc5[nH]4)c(C)c3)NC(=O)c3ccccc3)[nH]c2c1   SF-539 CNS          =          28.9
 2  NS(=O)(=O)c1ccc(N=Nc2c(O)c(C(=O)O)cc3ccccc23)cc1   SF-539 CNS          >           100
 3                Cc1ccccc1C(=O)c1cc(O)ccc1O   SF-539 CNS          >           100
 4  Cc1ccc(/C=N\NC2c3cc(Cl)ccc3Nc3nc(=O)[nH]c(C)c32)cc1 (configuration not stated)   SF-539 CNS          >           100
 5   NC(=O)c1c(NC(=O)c2ccccc2)sc2c1CCC(=O)C2   SF-539 CNS          =          3.27
 6  C[N+](C)([O-])CCOc1cc2c(c3ccccc13)-c1ccccc1C2=O   SF-539 CNS          =          38.4
 7  CC12CCC(=O)C[C@H]1CCC(OC=O)C2Br (some centres not stated)   SF-539 CNS          >           100
 8  CC1CC2CCCC(O)=C2C(=O)O1 (configuration not stated)   SF-539 CNS          >           100
 9  CN1CCOC1c1ccccc1O (configuration not stated)   SF-539 CNS          >           100
10  COc1cc(Cl)cc(-c2nn(-c3cccc(NC(=O)c4ccc(N5CCOCC5)c(C(F)(F)F)c4)c3)cc2-c2ccncc2)c1   SF-539 CNS          >           100
11  Cc1nnc(Nc2ccc(NC(=O)Nc3ccc(Cl)cc3)cc2)c2ccccc12   SF-539 CNS          =          3.32
12  C=C1CC(C#N)(C#N)[C@H]2C3CCCC3C[C@@H]12 (some centres not stated) (tested in a mixture with another compound)   SF-539 CNS          =          50.2
13  COc1cc2c(cc1OC)C(C(c1ccccc1)c1ccccc1)N(C)CC2 (configuration not stated)   SF-539 CNS          >           100
14    Cc1c2cc[n+](C)c(C)c2cc2c1[nH]c1ccccc12   SF-539 CNS          =          46.2
15  CCC(C)(C)c1ccc(OCCCCNC(=O)c2ccc3ccccc3c2O)c(C(C)(C)CC)c1   SF-539 CNS          >           100
16       CCNC(=S)NNC(=O)C12CC3CC(CC(C3)C1)C2   SF-539 CNS          >           100
17  Cc1cc(N[C@@H]2CCC[C@H](Nc3ccnc4cc(Cl)ccc34)C2)nc(N2CCCCCC2)n1   SF-539 CNS          =          3.03
18  O=C(NC[C@H](O)CN1CCc2ccccc2C1)c1cc(NC2COC2)ncn1   SF-539 CNS          =          45.6
19  N#Cc1nn(-c2cc(=O)[nH]c3ccc(Cl)cc23)c(N)c1C#N   SF-539 CNS          >           100
20  C#CC1/C(=C\C(=O)OC)CCCC1O (configuration not stated)   SF-539 CNS          >           100
21  O=C1OC(C2Cc3ccc4ccccc4c3C2=O)c2ccccc21 (configuration not stated)   SF-539 CNS          =          56.5
22  CCOC(=O)c1cccc(N=Nc2nc[nH]c2/C=C/C(=O)OC)c1   SF-539 CNS          >           100

====

- System: PC-3 prostate
- PROTOCOL DETAILS: NCI tumour cell line growth inhibition, 48 h; in the data active = GI50 below about 0.43 µM; inactive = the rest
Classes used: yes (1) (active), no (0) (inactive)

> print(dat)
                                   compound  category
1                      NC1CCN(Cc2ccccc2)CC1    no (0)
2  O=c1oc2ccc(-c3ccc(F)cc3F)cc2c(=O)n1-c1cccc(C(F)(F)F)c1    no (0)
3  Nc1ncn([C@@H]2O[C@H](CO)[C@@H](O)[C@H]2O)c(=O)n1    no (0)
4  O=C(/C=C/c1ccc[nH]1)c1ccc(-n2ccc(C(F)(F)F)n2)cc1   yes (1)
5  CCn1c(O)c(/C=N/NC(=O)C(C)c2ccc(CC(C)C)cc2)sc1=S (stereo not given)   yes (1)

====

- System: ACHN renal
- PROTOCOL DETAILS: NCI tumour cell line growth inhibition, 48 h; in the data active means GI50 below about 0.43 µM; inactive means the rest
Classes used: y = active, n = inactive

> print(dat)
                                    molecule  category
 1          O=C(Nc1ccc(Br)cc1F)c1cc(Cl)ccc1O         n
 2  CN1CCN(c2ccc(Nc3cc(-c4cccc(-n5ccc6cc(C7CC7)cc(F)c6c5=O)c4CO)cn(C)c3=O)nc2)CC1         n
 3  O=c1c(F)cn(Cc2ccc(C34CC5CC(CC(C5)C3)C4)c(O)c2)c(=O)n1Cc1ccc(C23CC4CC(CC(C4)C2)C3)c(O)c1         n
 4  COc1ccc(-c2nnc3n(C)c(=O)c4ccccc4n23)cc1N         n
 5  Cc1cc(N[C@@H]2CCC[C@H](Nc3ccnc4cc(Cl)ccc34)C2)nc(N2CCCCCC2)n1         n
 6   NC(=O)c1c(NC(=O)c2ccccc2)sc2c1CCC(=O)C2         n
 7  COC(=O)[C@]12CC[C@@H](C)[C@H](C)[C@@H]1C1=CC[C@@H]3[C@@]4(C)C[C@@H](O)[C@H](O)[C@@](C)(CO)C4=CC[C@@]3(C)[C@]1(C)CC2         n
 8  O=C(Nc1cccc(C(F)(F)F)c1)c1ccc(NC2=C(Cl)C(=O)N(Cc3ccc(Cl)cc3Cl)C2=O)cc1         n
 9  COc1cnc2c(c1)C(=O)c1c-2n(CCCN2CCOCC2)c(=O)c2cc(Cl)ccc12         y
10  CN(C)C1CCN(C(=O)c2ccc(NC(=O)Nc3ccc(-c4nc(N5CCOCC5)c5cccn5n4)cc3)cc2)CC1         n
11   CCOC(=O)Nc1cc2c(c(N)n1)N=C(c1ccccc1)CO2         n
12  COc1ccc(-c2ccc(=O)oc2C#Cc2cc(OC)c(OC)c(OC)c2)cc1O         n
13  CNCCOC(=O)/C=C1\CC[C@H]2[C@@H]([C@@H](O)C(=O)[C@@H]3[C@]2(C)CC[C@H](O)[C@]3(C)C(=O)OC)[C@H]1C         y
14  CCC[CH2][Sn]([CH2]CCC)([O]C(=O)c1ccc(OC)c(OC)c1OC)[O][Sn]([CH2]CCC)([CH2]CCC)[O]C(=O)c1ccc(OC)c(OC)c1OC         y
15  COc1cc(N(CCC#N)CCC#N)ccc1/C(N=Nc1ccc(Cl)cc1)=N/NC(=O)c1cc(Br)ccc1O         n
16  CC(=O)ON1CCCC(P(=O)(OCCSC(=O)C(C)(C)C)OCCSC(=O)C(C)(C)C)C1=O (stereo not drawn)         n
17  O=C(c1ccco1)c1c(C(F)(F)F)nc2ccc(Cl)cc2[n+]1[O-]         n
18  C[n+]1c(/C=C/c2c(O)ccc3ccccc23)ccc2ccccc21         n

====

- System: COLO 205 colon
- PROTOCOL DETAILS: NCI tumour cell line growth inhibition, 48 h
ENDPOINT NAME: TGI

> print(dat)
                                   compound  result.value
1     O=C1C=C/C(=N\N=C(c2ccccc2)c2ccccc2)O1       > 10 µM
2  Cc1ccc(C)c(NC(=O)c2cccc([N+](=O)[O-])c2O)c1       31.1 µM
3  CNCCOC(=O)/C=C1\CC[C@H]2[C@@H]([C@@H](O)C(=O)[C@@H]3[C@]2(C)CC[C@H](O)[C@]3(C)C(=O)OC)[C@H]1C       3.04 µM
4  O=[N+]([O-])C(=C(Nc1cccc2cccnc12)Nc1cccc2cccnc12)C(Cl)=C(Cl)Cl      > 100 µM
5  Cc1c2n(c(=O)[nH]c1=O)C1OC(CO)C(N=[N+]=[N-])C1O2 (stereo unspecified)      > 100 µM
6  N#Cc1nn(-c2cc(=O)[nH]c3ccc(Cl)cc23)c(N)c1C#N      > 100 µM
